Assay: Acute toxicity, intravenous (once), ddY mice
Assay type: in vivo
Details: mouse, in vivo, iv, formulated per Preparation Example
Text: In Table 7 are shown acute toxicity values (LD50, mg/kg) in ddY mice in the case of intravenously administering (once) each of the compounds of this invention in the form of preparations shown in the Preparation Examples shown in Table 7.
LD50 values for the molecules below.

{"molecule": "COc1cccc(C(=O)Oc2c3cccc(O[C@@H]4O[C@H](C)[C@@H]5OC(C)(C)O[C@@H]5[C@H]4O[C@H]4O[C@H](C)[C@H](O)[C@H](OC)[C@H]4O)c3c3oc(=O)c4c(C)ccc5oc(=O)c2c3c54)c1", "LD50": "≥ 80 mg/kg"}
{"molecule": "COC1C(O)C(C)OC(OC2C(Oc3cccc4c(OC(=O)CC[S+](C)[O-])c5c(=O)oc6ccc(C)c7c(=O)oc(c34)c5c67)OC(C)C3OC(c4ccccc4)OC32)C1O (stereo not drawn)", "LD50": "≥ 40 mg/kg"}
{"molecule": "C=CCCC(=O)Oc1c2cccc(O[C@@H]3O[C@H](C)[C@@H]4OC(c5ccccc5)O[C@@H]4[C@H]3O[C@H]3O[C@H](C)[C@H](O)[C@H](OC)[C@H]3O)c2c2oc(=O)c3c(C)ccc4oc(=O)c1c2c43 (stereo partly drawn)", "LD50": "≥ 40 mg/kg"}
{"molecule": "COC1C(O)C(C)OC(OC2C(Oc3cccc4c(OC(=O)C(CCSC)NC(=O)OCc5ccccc5)c5c(=O)oc6ccc(C)c7c(=O)oc(c34)c5c67)OC(C)C3OC(C)(C)OC32)C1O (stereo not drawn)", "LD50": "≥ 120 mg/kg"}
{"molecule": "COC1C(O)C(C)OC(OC2C(Oc3cccc4c(OC(=O)CCc5ccccc5)c5c(=O)oc6ccc(C)c7c(=O)oc(c34)c5c67)OC(C)C3OC(c4ccccc4)OC32)C1O (stereo not drawn)", "LD50": "≥ 40 mg/kg"}
{"molecule": "CCOCCC(=O)Oc1c2cccc(O[C@@H]3O[C@H](C)[C@@H]4OC(c5cccc(Cl)c5)O[C@@H]4[C@H]3O[C@H]3O[C@H](C)[C@H](O)[C@H](OC)[C@H]3O)c2c2oc(=O)c3c(C)ccc4oc(=O)c1c2c43 (stereo partly drawn)", "LD50": "≥ 60 mg/kg"}
{"molecule": "COC1C(O)C(C)OC(OC2C(Oc3cccc4c(OC(=O)CCN)c5c(=O)oc6ccc(C)c7c(=O)oc(c34)c5c67)OC(C)C3OC(c4ccccc4)OC32)C1O (stereo not drawn)", "LD50": "≥ 40 mg/kg"}
{"molecule": "COc1ccc(C2OC3C(C)OC(Oc4cccc5c(OC(=O)CCNC=O)c6c(=O)oc7ccc(C)c8c(=O)oc(c45)c6c78)C(OC4OC(C)C(O)C(OC)C4O)C3O2)cc1 (stereo not drawn)", "LD50": "≥ 40 mg/kg"}
{"molecule": "CO[C@H]1[C@@H](O)[C@@H](C)O[C@H](O[C@H]2[C@H](Oc3cccc4c(OC(=O)CCCCl)c5c(=O)oc6ccc(C)c7c(=O)oc(c34)c5c67)O[C@H](C)[C@@H]3OC(C)(C)O[C@@H]32)[C@@H]1O", "LD50": "≥ 60 mg/kg"}

###

LD50 values for the molecules below.
Assay: Acute toxicity, intravenous (once), ddY mice
Assay type: in vivo
Settings: mouse, in vivo, iv, formulated per Preparation Example

{"molecule": "COC1C(O)C(C)OC(OC2C(Oc3cccc4c(OC(=O)C(C)CNC(=O)OCc5ccccc5)c5c(=O)oc6ccc(C)c7c(=O)oc(c34)c5c67)OC(C)C3OC(c4cccc(F)c4)OC32)C1O (stereo not drawn) [Compound No. 60]", "LD50": "≥ 40 mg/kg"}
{"molecule": "COC1C(O)C(C)OC(OC2C(Oc3cccc4c(OC(=O)CCNC=O)c5c(=O)oc6ccc(C)c7c(=O)oc(c34)c5c67)OC(C)C3OC(c4ccco4)OC32)C1O (stereo not drawn) [compound 84]", "LD50": "≥ 80 mg/kg"}
{"molecule": "COC1C(O)C(C)OC(OC2C(Oc3cccc4c(OC(=O)C(C)CNC(=O)CNC(=O)OCc5ccccc5)c5c(=O)oc6ccc(C)c7c(=O)oc(c34)c5c67)OC(C)C3OC(c4ccccc4)OC32)C1O (stereo not drawn) [compound 74]", "LD50": "≥ 40 mg/kg"}

These entries and their values trace back to patent US4760136A.
